- Test system: COLO 205 colon
- method description: NCI tumour cell line growth inhibition, 48 h
# maps each entry to its GI50

Check out these entries, answers already filled in.
- compound: "OCc1ccc(N(Cc2ccc(F)cc2)C2CCC2)cc1Cl"
  property label: "GI50"
  assay result: "3.5 µM"
- compound: "O=C(Nc1ncc([N+](=O)[O-])s1)c1cccc([N+](=O)[O-])c1"
  property label: "GI50"
  assay result: "4 µM"
- compound: "COc1cc2c3c(n(CCCO)c(=O)c2cc1OC)-c1cc2c(cc1C3=O)OCO2"
  property label: "GI50"
  assay result: "26.4 µM"
- compound: "C=C(CN1CCc2ccccc2C1)c1ccc(/C=C/C(=O)Nc2ccccc2N)cc1"
  property label: "GI50"
  assay result: "32.2 µM"
- compound: "N.N.NCCCCN.O=C([O-])CC(=O)[O-].O=C([O-])CC(=O)[O-].[Pt+4].[Pt+4]"
  property label: "GI50"
  assay result: "> 100 µM"

Could you share which GI50 value was measured for COc1cc(/C=C2\CC(C)CC3C2=NN(c2ccccc2)C3c2cc(OC)c(OC)c(OC)c2)cc(OC)c1OC (stereo not given) ? 17.5 µM

Could you tell me which GI50 is on file for O=C1C(Cl)=C(Oc2ccccc2)C(=O)c2ccccc21 ? 1.68 µM

So what does the record say about GI50 for N#Cc1c2ccccc2c2nnc3cc(C(F)(F)F)ccc3n12 ? 37.4 µM

Find the recorded GI50 belonging to c1ccc(Oc2c3ccccc3nc3ccccc23)cc1 and report it. 2.61 µM

GET /values?readout=GI50&item= O=C1c2cccnc2-c2nc(-c3ccccn3)cc3c2c1nc1ccccc13 0.804 µM
